TARGET DESC: Fatty-acid amide hydrolase 1 (Rattus norvegicus) (UniProt P97612)
Sequence (P97612 whole entry): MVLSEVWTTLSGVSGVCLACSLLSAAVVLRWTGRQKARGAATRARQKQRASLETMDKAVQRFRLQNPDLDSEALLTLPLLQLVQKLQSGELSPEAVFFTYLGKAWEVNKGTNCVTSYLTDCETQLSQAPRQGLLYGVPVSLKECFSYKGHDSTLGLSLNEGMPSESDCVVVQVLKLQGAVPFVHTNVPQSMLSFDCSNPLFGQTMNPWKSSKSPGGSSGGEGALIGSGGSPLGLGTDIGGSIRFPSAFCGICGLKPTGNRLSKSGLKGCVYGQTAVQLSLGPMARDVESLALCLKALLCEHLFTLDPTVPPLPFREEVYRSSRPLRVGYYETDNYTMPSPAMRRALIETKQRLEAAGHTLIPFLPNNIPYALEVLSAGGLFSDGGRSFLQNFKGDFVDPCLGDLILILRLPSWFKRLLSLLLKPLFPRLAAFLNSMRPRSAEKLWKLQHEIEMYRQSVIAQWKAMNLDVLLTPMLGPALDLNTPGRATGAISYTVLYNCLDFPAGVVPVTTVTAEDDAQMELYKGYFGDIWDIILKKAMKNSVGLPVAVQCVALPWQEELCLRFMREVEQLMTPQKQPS
ASSAY NAME: Inhibition of Sprague-Dawley rat brain FAAH assessed as residual activity at 10 uM after 60 mins by reverse phase HPLC-based fluorescence method
I'd appreciate it if you could supply Activity values for the items below.

These recorded examples may help you get a feel for the data.
INSERT INTO measurements (molecule_smiles, endpoint_label, readout_value) VALUES
  ('CCCCCCCC(=O)c1ncc(CCCCS(=O)(=O)CCCN(C)C)o1', 'Activity', '59%'),
  ('CCCCCCCC(=O)c1ncc(CCCCCSCCCN(C)C)o1', 'Activity', '78%'),
  ('CCCCCCCCCCCC(=O)c1ncc(CCCCCSCCCN(C)C)o1', 'Activity', '64%'),
  ('CCCCCCCC(=O)c1ncc(CCCCCCS(=O)(=O)CCCN(C)C)o1', 'Activity', '62%'),
  ('CCCCCCCCCCCC(=O)c1ncc(CCCS(=O)(=O)CCC[N+](C)(C)C)o1', 'Activity', '13%'),
  ('CCCCCCCC(=O)c1ncc(CCCS(=O)(=O)CCC[N+](C)(C)C)o1', 'Activity', '53%'),
  ('CCCCCCCC(=O)c1ncc(CCCCCS(=O)(=O)CCC[N+](C)(C)C)o1', 'Activity', '70%'),
  ('CCCCCCCCCCCC(=O)c1ncc(CCCCS(=O)(=O)CCCN(C)C)o1', 'Activity', '32%');

Dear colleague, could you please provide Activity for the compounds listed below?
1. CCCCCCCC(=O)c1ncc(CCCCSCCC[N+](C)(C)C)o1
2. CCCCCCCCCCCC(=O)c1ncc(CCCCS(=O)(=O)CCC[N+](C)(C)C)o1
3. CCCCCCCCCCCC(=O)c1ncc(CCCCCS(=O)(=O)CCCN(C)C)o1
4. CCCCCCCC(=O)c1ncc(CCCCSCCCN(C)C)o1
5. CCCCCCCCCCCC(=O)c1ncc(CCCS(=O)(=O)CCCN(C)C)o1

["68%", "49%", "53%", "48%", "2%"]
